Target: human epidermal growth factor receptor 2 (HER2), membrane-bound on cells (human, UniProt P04626 23-1255)
Assay: FACS binding; AU565 cells
OBSERVED_PROPERTY: EC50 (µg/mL)
Respond numerically; units are µg/mL and should not be typed.

HuMab 084 (antibody, V domains shown) VH: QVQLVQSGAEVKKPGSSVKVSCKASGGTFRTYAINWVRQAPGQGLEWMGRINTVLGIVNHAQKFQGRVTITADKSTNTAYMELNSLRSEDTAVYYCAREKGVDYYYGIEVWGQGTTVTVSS VL: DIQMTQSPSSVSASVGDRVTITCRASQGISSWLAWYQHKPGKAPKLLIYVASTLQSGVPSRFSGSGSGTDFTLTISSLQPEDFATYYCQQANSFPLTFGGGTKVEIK	0.491

Kindly note the recorded EC50 for HuMab 169 (antibody, V domains shown) VH: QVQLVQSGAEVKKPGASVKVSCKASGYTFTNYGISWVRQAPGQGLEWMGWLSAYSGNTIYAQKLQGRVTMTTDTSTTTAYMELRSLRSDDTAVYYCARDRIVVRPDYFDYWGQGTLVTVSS VL: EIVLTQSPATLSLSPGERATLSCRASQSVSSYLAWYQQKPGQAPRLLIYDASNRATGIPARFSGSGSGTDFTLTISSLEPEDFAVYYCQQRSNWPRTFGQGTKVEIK , which is 0.908

Kindly note the recorded EC50 for HuMab 153 (antibody, V domains shown) VH: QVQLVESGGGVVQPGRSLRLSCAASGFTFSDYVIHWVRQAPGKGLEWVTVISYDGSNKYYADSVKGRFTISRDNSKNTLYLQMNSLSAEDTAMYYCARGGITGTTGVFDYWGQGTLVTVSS VL: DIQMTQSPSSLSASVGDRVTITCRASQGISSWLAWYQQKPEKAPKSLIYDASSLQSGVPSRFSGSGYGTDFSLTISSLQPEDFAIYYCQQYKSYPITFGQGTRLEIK , which is 0.626

Kindly note the recorded EC50 for HuMab 098 (antibody, V domains shown) VH: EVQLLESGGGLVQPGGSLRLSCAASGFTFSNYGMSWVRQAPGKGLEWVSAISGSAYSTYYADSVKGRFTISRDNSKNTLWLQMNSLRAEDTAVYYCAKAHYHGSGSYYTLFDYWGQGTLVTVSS VL: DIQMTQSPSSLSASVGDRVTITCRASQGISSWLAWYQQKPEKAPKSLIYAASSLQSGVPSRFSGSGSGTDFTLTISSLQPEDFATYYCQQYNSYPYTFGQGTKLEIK , which is 0.336

Kindly note the recorded EC50 for HuMab 025 (antibody, V domains shown) VH: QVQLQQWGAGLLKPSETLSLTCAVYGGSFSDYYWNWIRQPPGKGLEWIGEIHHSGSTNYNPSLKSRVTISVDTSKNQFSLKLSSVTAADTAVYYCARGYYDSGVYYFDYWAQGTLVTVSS VL: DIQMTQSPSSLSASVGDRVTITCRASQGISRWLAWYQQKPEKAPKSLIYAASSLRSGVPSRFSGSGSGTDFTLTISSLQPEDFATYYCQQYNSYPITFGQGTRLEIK , which is 0.58
